measurement_target: KRas^G12D (Homo sapiens, UniProt P01116, G12D)
Construct: corresponding to amino acids 1-169, produced at Accelegan Inc; biotin (biotinylated); purchased Accelegan Inc
Sequence (P01116 1-169 isoform P01116-2 G12D): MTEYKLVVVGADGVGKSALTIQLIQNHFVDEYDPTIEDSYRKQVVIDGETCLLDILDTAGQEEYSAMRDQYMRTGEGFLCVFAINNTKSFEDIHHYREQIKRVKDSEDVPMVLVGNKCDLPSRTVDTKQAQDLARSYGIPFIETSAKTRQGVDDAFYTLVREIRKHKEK
assay_method_text: KRas Binding Assay (TR-FRET displacement), KRas G12D
condition_info: TR-FRET tracer displacement
readout_kind: IC50

- compound: "C[C@H](Oc1nc(-c2noc(C3(C)CCCc4sc(N)c(C#N)c43)n2)cc(N2CCCC3(C2)NC(=O)NC3=O)n1)[C@@H]1CCCN1C (stereo partly shown)"
  result: "18 nM"

Asked: Which IC50 reading was recorded for the compound C[C@H](Oc1nc(-c2noc(C3(C)CCCc4sc(N)c(C#N)c43)n2)cc(N2CCCC3(CNS(=O)(=O)N3)C2)n1)[C@@H]1CCCN1C (stereo partly shown) ?
Given back: 6 nM

Asked: If you can, please state the reported IC50 value of C[C@H](Oc1nc(-c2noc(C3(C)CCCc4sc(N)c(C#N)c43)n2)cc(N2CCOCC(C)(O)C2)n1)[C@@H]1CCCN1C (stereo partly shown) .
Given back: 11 nM

###

Test system: KRas-mediated Phosphorylation of ERK in H2009 cells
assay_method_text: HTRF pERK assay, H2009 cells
Type: cell-based
condition_info: Homo sapiens, NCI-H2009; H2009 cells by column count (c8); may be PSN1; read-out: Inhibition (HTRF IC50 nM) of KRas-mediated Phosphorylation of ERK, H2009
Each entry below lists one item and its recorded IC50 value.

The following compounds have reported results that may help.
- compound: "C[C@H](Oc1nc(-c2noc(C3(C)CCCc4sc(N)c(C#N)c43)n2)cc(N2CCC[C@@](C)(O)C2)n1)[C@@H]1CCCN1C (stereo partly shown)"
  measurement_target: "KRas-mediated Phosphorylation of ERK in H2009 cells"
  result: "> 10000 nM"
- compound: "C[C@H](Oc1nc(-c2cc(C3(C)CCCc4sc(N)c(C#N)c43)sn2)cc(N2CCCC3(CNS(=O)(=O)N3)C2)n1)[C@@H]1CCCN1C (stereo partly shown)"
  measurement_target: "KRas-mediated Phosphorylation of ERK in H2009 cells"
  result: "9300 nM"
- compound: "C[C@H](Oc1nc(-c2noc(C3(C)CCCc4sc(N)c(C#N)c43)n2)cc(N2C[C@H]3CC[C@@H](C2)N3)n1)[C@@H]1CCCN1C (stereo partly shown)"
  measurement_target: "KRas-mediated Phosphorylation of ERK in H2009 cells"
  result: "> 10000 nM"

--- query ---
Asked: Any idea what its IC50 is? The compound is C[C@H](Oc1nc(-c2noc(C3(C)CCCc4sc(N)c(C#N)c43)n2)cc(N2CCOCC(C)(O)C2)n1)[C@@H]1CCCN1C (stereo partly shown)
Given back: > 10000 nM

###

measurement_target: KRas^G13D (Homo sapiens, UniProt P01116, G13D)
Construct: corresponding to amino acids 1-169, produced at Accelegan Inc; biotin (biotinylated); purchased Accelegan Inc
Sequence (P01116 1-169 isoform P01116-2 G13D): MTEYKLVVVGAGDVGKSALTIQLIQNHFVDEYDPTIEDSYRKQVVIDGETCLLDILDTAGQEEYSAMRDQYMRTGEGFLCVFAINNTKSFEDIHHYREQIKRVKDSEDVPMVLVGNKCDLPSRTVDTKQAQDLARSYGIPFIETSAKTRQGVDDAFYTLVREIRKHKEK
assay_method_text: KRas Binding Assay (TR-FRET displacement), KRas G13D
condition_info: TR-FRET tracer displacement
readout_kind: IC50 (nM)
Lab book: enter the figure in nM, no units written.

Example entries and their recorded answers appear below.
- molecule: "C[C@H](Oc1nc(-c2cc(C3(C)CCCc4sc(N)c(C#N)c43)sn2)cc(N2CCCn3nc(C(=O)N(C)C)cc3C2)n1)[C@@H]1CCCN1C (stereo partly drawn) [Example 12]"
  measurement_target: "KRas^G13D (Homo sapiens, UniProt P01116, G13D)"
  IC50 (nM): 584
- molecule: "C[C@H](Oc1nc(-c2cc(C3(C)CCCc4sc(N)c(C#N)c43)sn2)cc(N2CCCC3(CNS(=O)(=O)N3)C2)n1)[C@@H]1CCCN1C (stereo partly drawn) [Example 10]"
  measurement_target: "KRas^G13D (Homo sapiens, UniProt P01116, G13D)"
  IC50 (nM): 24
- molecule: "C[C@H](Oc1nc(-c2noc(C3(C)CCCc4sc(N)c(C#N)c43)n2)cc(N2CCCC3(CNS(=O)(=O)N3)C2)n1)[C@@H]1CCCN1C (stereo partly drawn) [Example 4]"
  measurement_target: "KRas^G13D (Homo sapiens, UniProt P01116, G13D)"
  IC50 (nM): 24
- molecule: "C[C@H](Oc1nc(-c2noc(C3(C)CCCc4sc(N)c(C#N)c43)n2)cc(N2CCCn3nc(C(=O)N(C)C)cc3C2)n1)[C@@H]1CCCN1C (stereo partly drawn) [Example 6]"
  measurement_target: "KRas^G13D (Homo sapiens, UniProt P01116, G13D)"
  IC50 (nM): 1080
- molecule: "C[C@H](Oc1nc(-c2noc(C3(C)CCCc4sc(N)c(C#N)c43)n2)cc(N2CCC[C@@](C)(O)C2)n1)[C@@H]1CCCN1C (stereo partly drawn) [Example 1]"
  measurement_target: "KRas^G13D (Homo sapiens, UniProt P01116, G13D)"
  IC50 (nM): 74

Asked: For the molecule C[C@H](Oc1nc(-c2cc(C3(C)CCCc4sc(N)c(C#N)c43)sn2)cc(N2C[C@H]3CC[C@@H](C2)N3)n1)[C@@H]1CCCN1C (stereo partly drawn) [Example 9] , what IC50 is on record?
Given back: 1320

Asked: Name the reported IC50 value associated with the molecule C[C@H](Oc1nc(-c2noc(C3(C)CCCc4sc(N)c(C#N)c43)n2)cc(N2C[C@H]3CC[C@@H](C2)N3)n1)[C@@H]1CCCN1C (stereo partly drawn) [Example 3]
Given back: 315

Asked: Reported IC50 for C[C@H](Oc1nc(-c2cc(C3(C)CCCc4sc(N)c(C#N)c43)sn2)cc(N2CCCC3(C2)NC(=O)NC3=O)n1)[C@@H]1CCCN1C (stereo partly drawn) [Example 11] : what is it?
Given back: 190

Asked: Field request: IC50 | item: C[C@H](Oc1nc(-c2cc(C3(C)CCCc4sc(N)c(C#N)c43)sn2)cc(N2C[C@@H]3C[C@H](C2)[C@H](O)C3)n1)[C@@H]1CCCN1C (stereo partly drawn) [Example 8]
Given back: 167

Asked: Which value of IC50 has been reported for C[C@H](Oc1nc(-c2noc(C3(C)CCCc4sc(N)c(C#N)c43)n2)cc(N2CCCC3(C2)NC(=O)NC3=O)n1)[C@@H]1CCCN1C (stereo partly drawn) [Example 2] in the records?
Given back: 37

Asked: Would you kindly share the measured IC50 for C[C@H](Oc1nc(-c2noc(C3(C)CCCc4sc(N)c(C#N)c43)n2)cc(N2C[C@@H]3C[C@H](C2)[C@H](O)C3)n1)[C@@H]1CCCN1C (stereo partly drawn) [Example 5] ?
Given back: 269

Asked: Which IC50 value belongs to C[C@H](Oc1nc(-c2cc(C3(C)CCCc4sc(N)c(C#N)c43)sn2)cc(N2CCC[C@@](C)(O)C2)n1)[C@@H]1CCCN1C (stereo partly drawn) [Example 7] ?
Given back: 128
